experiment: In vivo antitumor assay, MXI(sc); set-up: species or system human; settings: mouse, in vivo, drug ip, qd 1,5,9, exp SD-9
Listing: MTD of selected compounds
# unit: mg/kg | format: bare number

Previously resolved entries follow.
mol | uom | MTD
Cc1cc(-c2c(F)cc3c4nn(CCCN(C)C)c(=O)c-4cn(C4CC4)c3c2F)cc(C)n1 | mg/kg | 42
Cc1cc(-c2c(F)cc3c4nn(CCN(C)C)c(=O)c-4cn(C4CC4)c3c2F)cc(C)n1.O=C(O)/C=C/C(=O)O | mg/kg | 78

Next item in the queue.
**Query** // MTD lookup, key: `Cc1cc(-c2c(F)cc3c4nn(CCNCCO)c(=O)c-4cn(C4CC4)c3c2F)cc(C)n1`
**Result** 270

====

assay: In vivo antitumor assay, Mam16C/ADR; set-up: species or system mice; conditions: mouse, in vivo, drug iv, qd 1,3,5, exp 1120A, footnote 2: 2 lower doses equally active to modestly more active
measured metric: MTD (mg/kg)
Answer format: numeric, mg/kg implied, no suffix.

**Query** Param item = Cc1cc(-c2c(F)cc3c4nn(CCN(C)C)c(=O)c-4cn(C4CC4)c3c2F)cc(C)n1.O=C(O)/C=C/C(=O)O [Example 1] ; retrieve measured MTD.
**Result** 58

====

assay: In vivo antitumor assay, Colo38(sc); design: species or system mice; settings: mouse, in vivo, drug iv,sc: iv, qd 3-9, sc, qd 11-19, exp 1163
measured metric: MTD (mg/kg)
Report the figure in mg/kg without appending any unit label.

**Query** Which MTD is listed for Cc1cc(-c2c(F)cc3c4nn([C@H]5CC[C@@H](N)CC5)c(=O)c-4cn(C4CC4)c3c2F)cc(C)n1 [Example 56a] ?
**Result** 137

====

test system: P388 murine leukemia cells; assay: In vitro cytotoxicity, continuous (48-hour) exposure of P388 cells; format: cell-based; settings: Mus musculus; P388, continuous exposure (48-hour); read-out: in vitro cytotoxicity IC50, cont. exp.
Recorded IC50 values for a group of molecules are listed next.
Report the figure in nM without appending any unit label.

Previously resolved entries follow.
molecule | reported result
Cc1cc(-c2c(F)cc3c4nn(C5CCc6ccccc6C5)c(=O)c-4cn(C4CC4)c3c2F)cc(C)n1 (stereo not shown) [Example 44] | 1500
Cc1cc(-c2c(F)cc3c4nn(C)c(=O)c-4cn(C4CC4)c3c2F)cc(C)n1 [Example 7] | 510
Cc1cc(-c2c(F)cc3c4nn(CC5CCCCC5)c(=O)c-4cn(C4CC4)c3c2F)cc(C)n1 [Example 43] | 4900
Cc1cc(-c2c(F)cc3c4nn(C(C)(C)C)c(=O)c-4cn(C4CC4)c3c2F)cc(C)n1 [Example 8] | 3500
Cc1cc(-c2c(F)cc3c4nn(C5CCCCC5)c(=O)c-4cn(C4CC4)c3c2F)cc(C)n1 [Example 40] | 190

**Query** Query: IC50; subject: Cc1cc(-c2c(F)cc3c4nn(CCCCN(C)C)c(=O)c-4cn(C4CC4)c3c2F)cc(C)n1 [Example 54]
**Result** 500

**Query** Please give the result for Cc1cc(-c2c(F)cc3c4nn(-c5ccncc5)c(=O)c-4cn(C4CC4)c3c2F)cc(C)n1 [Example 30] too.
**Result** 1200

**Query** # iterate: COc1ccc(-n2nc3c4cc(F)c(-c5cc(C)nc(C)c5)c(F)c4n(C4CC4)cc-3c2=O)cc1 [Example 23]
**Result** 5200

**Query** Could you do the same for CCOC(=O)Cn1nc2c3cc(F)c(-c4cc(C)nc(C)c4)c(F)c3n(C3CC3)cc-2c1=O [Example 9] , please?
**Result** 150

**Query** Param item: Cc1cc(-c2c(F)cc3c4nn(C5CCNCC5)c(=O)c-4cn(C4CC4)c3c2F)cc(C)n1 [Example 49]
**Result** 2500

**Query** Similarly, Cc1cc(-c2c(F)cc3c4nn(CCc5ccccc5)c(=O)c-4cn(C4CC4)c3c2F)cc(C)n1 [Example 37] ?
**Result** 2200

**Query** Next entry: Cc1cc(-c2c(F)cc3c4nn(Cc5ccccc5)c(=O)c-4cn(C4CC4)c3c2F)cc(C)n1 [Example 31]
**Result** 140

**Query** What do you have for Cc1cc(-c2c(F)cc3c4nn(C5CCCC5)c(=O)c-4cn(C4CC4)c3c2F)cc(C)n1 [Example 41] ?
**Result** 380

====

assay: In vivo antitumor assay, MXI(src); parameters: species or system mice; settings: mouse, in vivo, drug ip, qd 1,5,9, exp SD-18, MTD not achieved, maximum dose tested
measured metric: MTD

**Query** For the molecule Cc1cc(-c2c(F)cc3c4nn([C@H]5CC[C@@H](N(C)C)CC5)c(=O)c-4cn(C4CC4)c3c2F)cc(C)n1 [Example 51a] , what MTD is on record?
**Result** > 23 mg/kg

====

Assay: In vivo antitumor assay, Colo38(sc)
Parameters: species or system mice
Settings: mouse, in vivo, drug iv, qd 3,12-14, exp 905
Description: Mice: Inbred: C3H/He and NCR-nu; and Hybrids: B6D2F1 (C57BL/6 females×DBA/2 males, CD2F1 (Balb/c females×DBS/2 males) and B6C3fl (C57BL/6×C3H) were bred at Wayne State University from strains obtained from the Frederick Cancer Research Facility, Frederick, Maryland or purchased from commercial suppliers. […] Quantitative end points used to assess antitumor activity included % Increased Life Span (% ILS), Tumor Cell Kill (Log10 kill), and Tumor Growth Inhibition (T/C). […]
measured metric: MTD (mg/kg)
Just the number in mg/kg, nothing appended.

**Query** Report MTD for Cc1cc(-c2c(F)cc3c4nn(CCCN(C)C)c(=O)c-4cn(C4CC4)c3c2F)cc(C)n1 [Example 14] please.
**Result** 133

====

Here the recorded log10 of IC50 is given for each entry.
test system: P388 murine leukemia cells; experiment: In vitro cytotoxicity, one-hour exposure, clonogenic survival of P388 cells; format: cell-based; conditions: Mus musculus, read-out: in vitro cytotoxicity IC50, 1 hr exp.; P388, 1 hr exposure
Note: values are log10 of IC50 expressed in nM.

compound | test system | reported result
Cc1cc(-c2c(F)cc3c4nn([C@H]5CC[C@@H](N(C)C)CC5)c(=O)c-4cn(C4CC4)c3c2F)cc(C)n1 [Example 51a] | P388 murine leukemia cells | 1.83

**Query** Given the compound `Cc1cc(-c2c(F)cc3c4nn([C@H]5CC[C@@H](NC=O)CC5)c(=O)c-4cn(C4CC4)c3c2F)cc(C)n1` , what is its reported log10 of IC50?
**Result** 3.71

**Query** And for `Cc1cc(-c2c(F)cc3c4nn(C5CCOCC5)c(=O)c-4cn(C4CC4)c3c2F)cc(C)n1` ?
**Result** 2.46

**Query** And then `Cc1cc(-c2c(F)cc3c4n[nH]c(=O)c-4cn(C4CC4)c3c2F)cc(C)n1` , what is it?
**Result** 3.90

**Query** Now try CO[C@@H]1CCCC[C@@H]1n1nc2c3cc(F)c(-c4cc(C)nc(C)c4)c(F)c3n(C3CC3)cc-2c1=O (relative stereo) .
**Result** 2.76

**Query** Next record, please: `CCN(CC)CCCn1nc2c3cc(F)c(-c4cc(C)nc(C)c4)c(F)c3n(C3CC3)cc-2c1=O`
**Result** 2.69

**Query** Next record, please: `Cc1cc(-c2c(F)cc3c4nn(CCN5CCOCC5)c(=O)c-4cn(C4CC4)c3c2F)cc(C)n1`
**Result** 3.45

====

assay: In vivo antitumor assay, Colo38(sc); design: species or system mice; conditions: mouse, in vivo, drug iv, qd 3,7,11, exp 1038
measured metric: MTD

**Query** Which MTD is reported for this compound? Cc1cc(-c2c(F)cc3c4nn(CCN(C)C)c(=O)c-4cn(C4CC4)c3c2F)cc(C)n1.O=C(O)/C=C/C(=O)O [Example 1]
**Result** 78 mg/kg

====

Test: In vivo antitumor assay, P388(ip)
Set-up: species or system mice
Details: mouse, in vivo, drug ip, qd 1,5,9
Text: Mice: Inbred: C3H/He and NCR-nu; and Hybrids: B6D2F1 (C57BL/6 females×DBA/2 males, CD2F1 (Balb/c females×DBS/2 males) and B6C3fl (C57BL/6×C3H) were bred at Wayne State University from strains obtained from the Frederick Cancer Research Facility, Frederick, Maryland or purchased from commercial suppliers. […] Quantitative end points used to assess antitumor activity included % Increased Life Span (% ILS), Tumor Cell Kill (Log10 kill), and Tumor Growth Inhibition (T/C). […]
Classify by measured MTD: yes (1) if it is equal to or exceeds 80 mg/kg, no (0) if it is smaller.

compound | qualitative label
Cc1cc(-c2c(F)cc3c4nn([C@H]5CC[C@H](N(C)C)CC5)c(=O)c-4cn(C4CC4)c3c2F)cc(C)n1 [Example 51b] | no (0)
Cc1cc(-c2c(F)cc3c4nn(CCCN(C)C)c(=O)c-4cn(C4CC4)c3c2F)cc(C)n1 [Example 14] | no (0)
Cc1cc(-c2c(F)cc3c4nn([C@H]5CC[C@@H](N(C)C)CC5)c(=O)c-4cn(C4CC4)c3c2F)cc(C)n1 [Example 51a] | no (0)

Please look at the following compound next.
**Query** Does MTD meet or surpass 80 mg/kg for Cc1cc(-c2c(F)cc3c4nn(CCNCCO)c(=O)c-4cn(C4CC4)c3c2F)cc(C)n1 [Example 17] ?
**Result** yes (1)
